Measured growth by item
Tested on: SF-539 CNS
Assay: NCI-60 one-dose screen, 48 h (100 = growth as untreated, 0 = no growth, -100 = all killed)
Conditions: 10 µM unless noted
This is part of a sample that, as a whole, favours compounds with a hit. Of some 83,000 tested, about 20% had one in any assay.
recorded.endpoint: growth (%)

* COc1ccc(/C=C2\C(=O)N(C(=O)c3csc(NC(C)=O)n3)N=C2C)cc1 | 104
* Cc1cc(Nc2nc(C(=O)Nc3ccccc3)nc3ccccc23)n[nH]1 | 78.7
* CC(C)CCN(CCCNc1c2c(nc3ccccc13)CCCC2)CCC(C)C | 88.2
